# study_target: B.1.351 (S1)
# test_method_notes: ELISA, heat map
value_type: binding result

23-H7 (antibody, V domains shown, also called bin 2) VH: QVQLVQSGAEVKLPGASMKVSCKASGYTFSTYYMHWVRQAPGQGPEWMGVIDPSGGTTSYAQKFHDRIAMTRDTSTSTAYLELSSLRSEDMAVYYCARGGFADAVDYWGQGTLVTVSS VL: NFMLTQPHSVSGSPGKTVTISCTRNSGSIAGNYVQWYQQRPGSAPTTVIYEDNQRPSGVPDRFSGSIDSSSNSASLTISGLKTEDEADYYCQSYDASHLHVIFGGGTKVTVL = binds
2-A6 (antibody, V domains shown, also called bin S2) VH: QVTLRESGPALVKPTQTLTLTCTFSGFSLNTRGMSVSWIRQPPGKALEWLALIDWEDDKFYRTSLMTRLTISKDIFKNQVVLTMTNVDPVDTGTYYCARTYSVGVKYFGMDVWGQGTTVTVSS VL: SSELTQDPAVSVALGQTVRITCQGDSLRNYYASWYRQEPGQAPILLIYGGNYRPSGIPDRFSGSSSGNTASLTITGAQAEDEADYYCNSRDSSGNHVVFGGGTKLTVL = no binding
22-E7 (antibody, V domains shown, also called bin C) VH: QVQLVESGGGVVQPGTSLRLSCAASGFTFNNYPMFWVRQAPGKGLEWLALISYDGNHKVYADSVKGRFTISRDNAKNTLYLQMHSLRAEDTALYYCASDLSGAEDSWGQGTLVTVSS VL: QSALTQPASVSGSPGQSITISCTGTSSDVGGYNYVSWYQQHPGKAPKLLIYEVSNRPSGVSNRFSGSKSGNTASLTISGLQAEDEADYYCSSYTSSSTWVFGGGTKLTVL = binds
22-D9 (antibody, V domains shown, also called bin 4) VH: QVQLVQSGAEVKKPGSSVNVSCKTSGGTFNTYSINWVRQAPGQGLEWMGEIIPIFDKPNYAQKFQGRVTITADESTSTAYMELTSLRSDDTAVYYCARGTGYYYGMDVWGQGTTVTVSS VL: QSVLTQPPSVSGAPRQTVTISCFGSRSNIGNYPVNWYHQVPGKAPKVVVYYDDLLPSGISDRFSGYKSGTSASLTISGLRSEDEADYYCATWDDSLNVWVFGGGTKLTVL = no binding

Reference for the values: patent US20230250158A1
